- ASSAY_NAME: Selectivity index, ratio of CC50 for African green monkey Vero cells to MIC for antifungal activity against Candida albicans ATCC 10231
- Format: toxicity
- CONDITION_SUMMARY: read-out: Selectivity Index
OUTCOME_MEASURE: selectivity ratio

q: Field request: selectivity ratio | item: Cc1nc(-c2ccc(C(C)(C)C)cc2)sc1-c1nnc(N[C@@H]2CCCC[C@@H]2N)o1 (relative stereo)
a: ≤ 64

---

- ASSAY_NAME: Selectivity index, ratio of maximum non-toxic concentration for human Caco-2 cells to MIC for antifungal activity against Cryptococcus neoformans NR48770
- Format: toxicity
- CONDITION_SUMMARY: read-out: Selectivity Index
OUTCOME_MEASURE: selectivity ratio

q: Field request: selectivity ratio | item: Cc1nc(-c2ccc(C(C)(C)C)cc2)sc1-c1nnc(N[C@@H]2CCCC[C@@H]2N)o1 (relative stereo)
a: ≤ 64

---

- ASSAY_NAME: Selectivity index, ratio of maximum non-toxic concentration for human Caco-2 cells to MIC for antifungal activity against Cryptococcus neoformans NR41298
- Assay type: toxicity
- CONDITION_SUMMARY: read-out: Selectivity Index
OUTCOME_MEASURE: selectivity ratio

q: Field request: selectivity ratio | item: Cc1nc(-c2ccc(C(C)(C)C)cc2)sc1-c1nnc(N[C@@H]2CCCC[C@@H]2N)o1 (relative stereo)
a: ≤ 64

---

- ASSAY_NAME: Selectivity index, ratio of CC50 for African green monkey Vero cells to MIC for antifungal activity against Candida parapsilosis ATCC 22019
- Assay type: toxicity
- CONDITION_SUMMARY: read-out: Selectivity Index
OUTCOME_MEASURE: selectivity ratio

q: Field request: selectivity ratio | item: Cc1nc(-c2ccc(C(C)(C)C)cc2)sc1-c1nnc(N[C@@H]2CCCC[C@@H]2N)o1 (relative stereo)
a: ≤ 64

---

- ASSAY_NAME: Selectivity index, ratio of maximum non-toxic concentration for human Caco-2 cells to MIC for antifungal activity against Candida krusei CAB 396420
- Format: toxicity
- CONDITION_SUMMARY: read-out: Selectivity Index
OUTCOME_MEASURE: selectivity ratio

q: Field request: selectivity ratio | item: Cc1nc(-c2ccc(C(C)(C)C)cc2)sc1-c1nnc(N[C@@H]2CCCC[C@@H]2N)o1 (relative stereo)
a: ≤ 64

---

- ASSAY_NAME: Selectivity index, ratio of maximum non-toxic concentration for human Caco-2 cells to MIC for antifungal activity against fluconazole-resistant Candida albicans NR29448
- Assay type: toxicity
- CONDITION_SUMMARY: read-out: Selectivity Index
OUTCOME_MEASURE: selectivity ratio

q: Field request: selectivity ratio | item: Cc1nc(-c2ccc(C(C)(C)C)cc2)sc1-c1nnc(N[C@@H]2CCCC[C@@H]2N)o1 (relative stereo)
a: ≤ 64

---

- ASSAY_NAME: Selectivity index, ratio of CC50 for African green monkey Vero cells to MIC for antifungal activity against Candida glabrata ATCC MYA-2950
- Assay type: toxicity
- CONDITION_SUMMARY: read-out: Selectivity Index
OUTCOME_MEASURE: selectivity ratio

q: Field request: selectivity ratio | item: Cc1nc(-c2ccc(C(C)(C)C)cc2)sc1-c1nnc(N[C@@H]2CCCC[C@@H]2N)o1 (relative stereo)
a: ≤ 64

---

- ASSAY_NAME: Selectivity index, ratio of CC50 for African green monkey Vero cells to MIC for antifungal activity against fluconazole-resistant Candida auris 383
- Format: toxicity
- CONDITION_SUMMARY: read-out: Selectivity Index
OUTCOME_MEASURE: selectivity ratio

q: Field request: selectivity ratio | item: Cc1nc(-c2ccc(C(C)(C)C)cc2)sc1-c1nnc(N[C@@H]2CCCC[C@@H]2N)o1 (relative stereo)
a: ≤ 64

---

- ASSAY_NAME: Cytotoxicity against human Caco-2 cells assessed as cell viability up to 64 ug/ml incubated for 24 hrs by MTS assay
- Type: cell-based
- CONDITION_SUMMARY: dose <=64 µg/ml, read-out: Activity
OUTCOME_MEASURE: viability at 24 h (%)
The answer is to be given in %; state only the numeric part.

q: Field request: viability at 24 h | item: Cc1nc(-c2ccc(C(C)(C)C)cc2)sc1-c1nnc(N[C@@H]2CCCC[C@@H]2N)o1 (relative stereo)
a: 100

---

- Test system: Clostridioides difficile
- ASSAY_NAME: Antibacterial activity against Clostridium difficile BAA1870 assessed as reduction in bacterial growth by CLSI based broth microdilution method
- Assay type: functional
OUTCOME_MEASURE: MIC (µg/mL)
The answer is to be given in µg/mL; state only the numeric part.

q: Field request: MIC | item: `Cc1nc(-c2ccc(C(C)(C)C)cc2)sc1-c1nnc(N2CCC[C@H]2C(N)=O)o1`
a: 32

q: Field request: MIC | item: `Cc1nc(-c2ccc(C(C)(C)C)cc2)sc1-c1nnc(NC[C@H](O)CO)o1`
a: 16

q: Field request: MIC | item: Cc1nc(-c2ccc(C(C)(C)C)cc2)sc1-c1nnc(NC2CCNC2)o1 (stereo not given)
a: 16

q: Field request: MIC | item: `Cc1nc(-c2ccc(C(C)(C)C)cc2)sc1-c1nnc(NCCCN)o1`
a: 64

---

- ASSAY_NAME: Cytotoxicity against African green monkey Vero cells assessed as reduction in cell viability incubated for 2 hrs by MTS assay
- Type: cell-based
- CONDITION_SUMMARY: chlorocebus sabaeus
OUTCOME_MEASURE: CC50 at 2 h

q: Field request: CC50 at 2 h | item: C[C@@H]1[C@H](O)[C@@H](C)/C=C/C=C/C=C/C=C/C=C/C=C/C=C/[C@H](O[C@@H]2O[C@H](C)[C@@H](O)[C@H](N)[C@@H]2O)C[C@@H]2O[C@](O)(C[C@@H](O)C[C@@H](O)[C@H](O)CC[C@@H](O)C[C@@H](O)CC(=O)O[C@H]1C)C[C@H](O)[C@H]2C(=O)O [AMPHOTERICIN B]
a: 8 µg/mL

q: Field request: CC50 at 2 h | item: Cc1nc(-c2ccc(C(C)(C)C)cc2)sc1-c1nnc(N[C@@H]2CCCC[C@@H]2N)o1 (relative stereo)
a: > 64 µg/mL

---

- ASSAY_NAME: Selectivity index, ratio of CC50 for African green monkey Vero cells to MIC for antifungal activity against Candida krusei ATCC 34135
- Type: toxicity
- CONDITION_SUMMARY: read-out: Selectivity Index
OUTCOME_MEASURE: selectivity ratio

q: Field request: selectivity ratio | item: Cc1nc(-c2ccc(C(C)(C)C)cc2)sc1-c1nnc(N[C@@H]2CCCC[C@@H]2N)o1 (relative stereo)
a: ≤ 64

---

- ASSAY_NAME: Selectivity index, ratio of CC50 for African green monkey Vero cells to MIC for antifungal activity against fluconazole-resistant Candida albicans NR29448
- Assay type: toxicity
- CONDITION_SUMMARY: read-out: Selectivity Index
OUTCOME_MEASURE: selectivity ratio

q: Field request: selectivity ratio | item: Cc1nc(-c2ccc(C(C)(C)C)cc2)sc1-c1nnc(N[C@@H]2CCCC[C@@H]2N)o1 (relative stereo)
a: ≤ 64

---

- ASSAY_NAME: Selectivity index, ratio of maximum non-toxic concentration for human Caco-2 cells to MIC for antifungal activity against Candida parapsilosis ATCC 22019
- Type: toxicity
- CONDITION_SUMMARY: read-out: Selectivity Index
OUTCOME_MEASURE: selectivity ratio

q: Field request: selectivity ratio | item: Cc1nc(-c2ccc(C(C)(C)C)cc2)sc1-c1nnc(N[C@@H]2CCCC[C@@H]2N)o1 (relative stereo)
a: ≤ 64

Every entry's value here was drawn from ChEMBL document CHEMBL4680171.
